Could you please report measured CLint scaled for the items listed next?
# Assay Info: Metabolic stability in human liver microsomes assessed as intrinsic clearance
# Format: ADME, Microsome
# Experimental Parameters: read-out: CLH
Numbers only, in mL/min/kg.

Some solved cases for reference:
Cc1cc(NC(=O)c2cccc(C(F)F)n2)cn2cc(C3CCOCC3)nc12 : 11
CCOc1cc2nc(C34COC(C)(C3)C4)cn2cc1NC(=O)c1cccc(C(F)F)n1 : 5.4
CCOc1cc2nc(C[C@@H]3CCOC3)cn2cc1NC(=O)c1cccc(C(F)F)n1 : 62

Input line: # get_value(readout='CLint scaled', item= CC(C)Oc1cc2nc(C3CCOCC3)cn2cc1C(=O)Nc1cccc(C(F)F)n1 )
Output line: 21
